# procedureSummary: modulators of LAP4-GFP expression in yeast, primary screen, S. cerevisiae, multiplex flow cytometry (AID 1873)
# studyConditions: 3 h, at 10 µM, hits give high values
Results filed as inconclusive are left out.
Threshold check on GFP response vs DMSO: at or above 90% gives true, strictly below gives false.

Is it the case that CC(=O)c1c(N)nc2n(c1=O)CCCCC2 has GFP response vs DMSO reaching or exceeding 90%?
true

Is it the case that C[C@H]1C[C@H]2[C@@H]3CCC4=CC(=O)C=C[C@]4(C)[C@@]3(Cl)[C@@H](O)C[C@]2(C)[C@@]1(O)C(=O)CO has GFP response vs DMSO reaching or exceeding 90%?
true

Is it the case that COc1ccc2c(c1)[nH]c1c(=O)n(Cc3ccccn3)cnc12 has GFP response vs DMSO reaching or exceeding 90%?
true

Is it the case that CC12CCC(C(=O)N3CCCCC3)([C@H](Br)C1=O)C2(C)C (stereo not given in full) has GFP response vs DMSO reaching or exceeding 90%?
false

Is it the case that C[N+]12CCCCC1C(COC(=O)c1ccc3c(c1)OCO3)CCC2 (stereo not given) has GFP response vs DMSO reaching or exceeding 90%?
false

Is it the case that CCNC(=S)Nc1ccc(OC(F)(F)F)cc1 has GFP response vs DMSO reaching or exceeding 90%?
true

Is it the case that Nc1ccc(S(=O)(=O)c2ccc(N)cc2)cc1 has GFP response vs DMSO reaching or exceeding 90%?
true

Is it the case that CC(C)c1ccccc1OCCNC(=S)NC(=O)c1cccnc1 has GFP response vs DMSO reaching or exceeding 90%?
true

###

Give measured GFP response, % of DMSO for each item. Keep answers brief.
# procedureSummary: AGP1-GFP expression modulators, hit retest, confirmation, cell-based, flow cytometry, S. cerevisiae, cherry picks (AID 2273);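 further: median GFP channel fluorescence over the whole cell population gate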
# studyConditions: S. cerevisiae AGP1-GFP strain, 3 h, at 10 µM
Reply with just the number (in %).

Fill in: GFP response, % of DMSO of Cc1cc(Cl)ccc1N=c1ssnc1Cl is ___
97.3

Fill in: GFP response, % of DMSO of CS(=O)(=O)c1nc(-c2ccccc2)cc(C(F)(F)F)n1 is ___
102

Fill in: GFP response, % of DMSO of CCc1nnc(N2C(=O)c3cccc4cccc(c34)C2=O)s1 is ___
98.8

Fill in: GFP response, % of DMSO of Cc1onc(-c2ccccc2)c1C(=O)N1CCC(C)CC1 is ___
102

Fill in: GFP response, % of DMSO of CCOC(=O)Cc1csc(NC(=O)COc2ccc(N(C)S(=O)(=O)c3cccs3)cc2)n1 is ___
96.6

Fill in: GFP response, % of DMSO of CCNc1nc(-c2ccc(Cl)cc2)cs1 is ___
97.8

Fill in: GFP response, % of DMSO of Cc1cccc(NC(=O)CC2SC(=O)N(c3ccccc3)C2=O)c1 (stereo not given) is ___
93.9

Fill in: GFP response, % of DMSO of O=C(O)CSC1CC(=O)N(c2ccc(Cl)cc2)C1=O (stereo not given) is ___
97.3

Fill in: GFP response, % of DMSO of CCOc1cc(/C=C2\N=C(C)OC2=O)cc(Cl)c1OCC(=O)OC is ___
92.4

Fill in: GFP response, % of DMSO of Cc1ccccc1N1C(=O)C(Cl)=C(N2CCN(c3ccccc3)CC2)C1=O is ___
93

Fill in: GFP response, % of DMSO of O=C(O)CCCn1nc(-c2ccccc2)c2ccccc21 is ___
101

Fill in: GFP response, % of DMSO of CCOC(=O)c1ccc(NC(=O)CCc2nc(-c3cccc(C)c3)no2)cc1 is ___
95.8

Fill in: GFP response, % of DMSO of CCOC(=O)c1ccc2nc(Nc3nc4ccc(F)cc4s3)sc2c1 is ___
105

Fill in: GFP response, % of DMSO of COc1cccc2c1Oc1ncccc1N(C(=O)CCC(=O)NCc1ccc(C)cc1)C2 is ___
106

Fill in: GFP response, % of DMSO of O=C(Nc1ccc(Cl)cc1Cl)c1cccc(N2C(=O)C=CC2=O)c1 is ___
99.1

Fill in: GFP response, % of DMSO of Cc1cccn2c(=O)c(/C=C(\C#N)C(=O)NCc3ccco3)c(N3CCCCCC3)nc12 is ___
95.4

Fill in: GFP response, % of DMSO of O=c1[nH]c(CN2CCCCC2)nc2c1C1(CCCCC1)Cc1ccccc1-2 is ___
99.2

Fill in: GFP response, % of DMSO of C/C(=N\Nc1ncnc2sc(C)c(C)c12)c1ccccn1 is ___
107

Fill in: GFP response, % of DMSO of O=C(c1ccc2c(c1)OCO2)N1CCN(c2ccccc2)CC1 is ___
98

Fill in: GFP response, % of DMSO of CC(NC(=O)C1CCC(CNS(=O)(=O)c2ccccc2)CC1)c1ccccc1 (stereo not given) is ___
107

Fill in: GFP response, % of DMSO of O=C(NCCCSc1ccccc1)c1cc(Cl)ccc1O is ___
90.5

Fill in: GFP response, % of DMSO of Cc1cc(/C=C2/SC(=S)N(c3cccc(Cl)c3)C2=O)c(C)n1-c1cccnc1 is ___
110

Fill in: GFP response, % of DMSO of Cc1ccc(-c2nnc(NC(=O)c3ccc([N+](=O)[O-])o3)o2)c(C)c1 is ___
92.3

Fill in: GFP response, % of DMSO of CN=C(NC)SC1CC(=O)N(c2ccccc2)C1=O (stereo not given) is ___
93.5

Fill in: GFP response, % of DMSO of O=C(CCC(F)(F)F)N1CCC(CO)(CCc2ccccc2)CC1 is ___
101

Fill in: GFP response, % of DMSO of O=c1[nH]c(-c2ccccn2)nc(C(F)(F)F)c1Br is ___
91.2

Fill in: GFP response, % of DMSO of CCC(C)(C)n1nnnc1C(c1ccc(O)c(OC)c1)N1CCc2ccccc2C1 (stereo not given) is ___
117

Fill in: GFP response, % of DMSO of CCc1ccc(NC(=O)c2nc(S(=O)(=O)Cc3ccccc3)ncc2Cl)cc1 is ___
96

Fill in: GFP response, % of DMSO of O=C(COC(=O)/C=C/c1cccs1)Nc1nc(-c2cccc(Br)c2)cs1 is ___
96.7

Fill in: GFP response, % of DMSO of O=C(NC(c1ccccc1)C(Cl)Cl)c1ccccc1 (stereo not given) is ___
125

Fill in: GFP response, % of DMSO of O=c1[nH]c2c(=O)[nH]cnc2nc1-c1ccccc1 is ___
98.2

Fill in: GFP response, % of DMSO of Cc1cc(C)c(C)c(S(=O)(=O)ON2C(=O)c3ccccc3C2=O)c1C is ___
97.3

Fill in: GFP response, % of DMSO of CCN(CC)S(=O)(=O)c1ccc(O)c(C(=O)OCC(=O)NC2CCCC2)c1 is ___
102

Fill in: GFP response, % of DMSO of CCOC(=O)c1ccc(NC(=O)c2ccc3c(c2)C(=O)N(Cc2cccnc2)C3=O)cc1 is ___
99.3

Fill in: GFP response, % of DMSO of COC(=O)c1sc(-c2ccc(C(C)(C)C)cc2)cc1NC(=O)CCC(=O)O is ___
95.4

Fill in: GFP response, % of DMSO of Cc1c(N2C(=O)/C(=C\c3ccccc3O)SC2=S)c(=O)n(-c2ccccc2)n1C is ___
93.2

Fill in: GFP response, % of DMSO of CCc1nnc(NC(=O)c2nc(S(=O)(=O)Cc3cccc(C)c3)ncc2Cl)s1 is ___
105

Fill in: GFP response, % of DMSO of CCC(=O)Nc1nc(C)c(-c2csc(Nc3cccc(C(=O)O)c3)n2)s1 is ___
94.8

Fill in: GFP response, % of DMSO of COCCNC(=O)c1ccccc1-c1nc(-c2ccccc2Cl)no1 is ___
96

Fill in: GFP response, % of DMSO of CCCc1[nH]nc2c1C(c1cccc(OC)c1)C(C#N)=C(N)O2 (stereo not given) is ___
98.6

Fill in: GFP response, % of DMSO of Cc1nnc(NC(=O)c2nc(S(=O)(=O)Cc3ccccc3)ncc2Cl)s1 is ___
103

Fill in: GFP response, % of DMSO of CC1=NNC(=O)/C1=C\c1cn(-c2ccccc2)nc1-c1ccccc1 is ___
124

Fill in: GFP response, % of DMSO of Cc1cc(C)c2sc(NC(=O)C3=COCCO3)nc2c1 is ___
92.5

Fill in: GFP response, % of DMSO of CN(C)c1ccc(/C=C/c2cc[n+](C)cc2)cc1 is ___
109

Fill in: GFP response, % of DMSO of COc1ccc(-c2cc(C(F)(F)F)nc(S(C)(=O)=O)n2)cc1 is ___
116

# credit: PubChem BioAssay
